Assay: Metabolic stability in mouse liver microsomes
Assay type: in vitro ADME
Conditions: 1 µM, scaled from in vitro clearance
Measurement Type: % LBF predicted in vivo hepatic clearance

Example entries and their recorded answers appear below.
{"Given Smiles": "N#Cc1ccc(-c2cc(CNc3cccc4cccnc34)on2)cc1", "Result": "55 % LBF"}
{"Given Smiles": "c1ccc(-c2cc(CNc3cccc4cccnc34)on2)nc1", "Result": "96 % LBF"}
{"Given Smiles": "Clc1ccc(-c2cc(CNc3cccc4cccnc34)on2)c(Cl)c1", "Result": "51 % LBF"}
{"Given Smiles": "FC(F)(F)c1cc(OCc2cc(-c3ccccn3)no2)c2ccccc2n1", "Result": "87 % LBF"}
{"Given Smiles": "FC(F)(F)c1cc(OCc2cc(-c3ccccc3)no2)c2ccccc2n1", "Result": "74 % LBF"}
{"Given Smiles": "N/C(=N\\O)c1ccc(-c2cc(CNc3cccc4cccnc34)on2)cc1", "Result": "53 % LBF"}

Query: Fill in: % LBF predicted in vivo hepatic clearance of `c1ccc(-c2cc(CNc3cccc4cccnc34)on2)cc1` is ___
Result: >97 % LBF

----------
Tested on: MDCKII-hMDR1 cell monolayers
Assay: Permeability on MDCKII-hMDR1 cell monolayers
Assay type: in vitro ADME, canine
Settings: MDCKII-hMDR1
Measurement Type: Permeability classification

{"Compound": "c1ccc(-c2cc(CNc3cccc4cccnc34)on2)nc1 [Compound 8b]", "Result": "High"}
{"Compound": "FC(F)(F)c1ccc(-c2cc(CNc3cccc4cccnc34)on2)cc1 [Compound 8c]", "Result": "Low/—"}
{"Compound": "c1ccc(-c2cc(CNc3cccc4cccnc34)on2)cc1 [Compound 8a]", "Result": "low to moderate"}
{"Compound": "N/C(=N\\O)c1ccc(-c2cc(CNc3cccc4cccnc34)on2)cc1 [Compound 8f]", "Result": "High"}
{"Compound": "FC(F)(F)c1cc(OCc2cc(-c3ccccc3)no2)c2ccccc2n1 [Compound 7a]", "Result": "low to moderate"}
{"Compound": "FC(F)(F)c1cc(OCc2cc(-c3ccccn3)no2)c2ccccc2n1 [Compound 7b]", "Result": "low to moderate"}

Query: Fill in: Permeability classification of Clc1ccc(-c2cc(CNc3cccc4cccnc34)on2)c(Cl)c1 [Compound 8d] is ___
Result: Low/—

----------
Tested on: P-glycoprotein (human MDR1)
Test: Permeability on MDCKII-hMDR1 cell monolayers
Assay type: in vitro ADME, canine
Conditions: dog, MDCK-MDR1, pH 7.4
Measurement Type: Papp B→A at 60 min, 10 µM (×10⁻⁶ cm/s)
Reply with just the number (in ×10⁻⁶ cm/s).

Query: Fill in: Papp B→A at 60 min, 10 µM of FC(F)(F)c1cc(OCc2cc(-c3ccccc3)no2)c2ccccc2n1 [Compound 7a] is ___
Result: 0.1

Query: Continue with FC(F)(F)c1cc(OCc2cc(-c3ccccn3)no2)c2ccccc2n1 [Compound 7b]
Result: 4.6

Query: Continue with c1ccc(-c2cc(CNc3cccc4cccnc34)on2)nc1 [Compound 8b]
Result: 27.8

Query: Continue with N#Cc1ccc(-c2cc(CNc3cccc4cccnc34)on2)cc1 [Compound 8e]
Result: 3.1

Query: Continue with N/C(=N\O)c1ccc(-c2cc(CNc3cccc4cccnc34)on2)cc1 [Compound 8f]
Result: 13.7
